Details: in NMP, 288.15 K
measure-name: solubility (mole fraction)
Field format: numeric only.

IN: For the compound `CC(C)Oc1ccc2c(=O)c(-c3ccccc3)coc2c1` , what solubility (mole fraction) is on record?
OUT: 0.078

###

Details: in NMP, 278.15 K
measure-name: solubility (mole fraction)
Response field accepts a number only; no unit should be typed.

IN: Which solubility (mole fraction) reading was recorded for the compound `CC(C)Oc1ccc2c(=O)c(-c3ccccc3)coc2c1` ?
OUT: 0.0605

###

Settings: in NMP, 323.15 K
measure-name: solubility (mole fraction)
// print number alone

IN: Suppose we examine the compound `CC(C)Oc1ccc2c(=O)c(-c3ccccc3)coc2c1` ; what solubility (mole fraction) value has been reported?
OUT: 0.186

###

Details: in NMP, 298.15 K
measure-name: solubility (mole fraction)
When you answer, write just the number.

IN: # lookup: solubility (mole fraction) of `CC(C)Oc1ccc2c(=O)c(-c3ccccc3)coc2c1`
OUT: 0.101

###

Conditions: in NMP, 308.15 K
measure-name: solubility (mole fraction)
Would you mind answering with just the numeric figure?

IN: Reported solubility (mole fraction) for `CC(C)Oc1ccc2c(=O)c(-c3ccccc3)coc2c1` : what is it?
OUT: 0.129

###

Conditions: in NMP, 293.15 K
measure-name: solubility (mole fraction)
Could you respond with only the numeric value?

IN: # query: solubility (mole fraction) of entry `CC(C)Oc1ccc2c(=O)c(-c3ccccc3)coc2c1`
OUT: 0.0892

###

Settings: in NMP, 303.15 K
measure-name: solubility (mole fraction)
Give a plain numeric answer without units written out.

IN: // query solubility (mole fraction) value for entry `CC(C)Oc1ccc2c(=O)c(-c3ccccc3)coc2c1`
OUT: 0.113

###

Settings: in NMP, 313.15 K
measure-name: solubility (mole fraction)
Please give the numeric answer without any surrounding text.

IN: Quick one: solubility (mole fraction) of `CC(C)Oc1ccc2c(=O)c(-c3ccccc3)coc2c1` ?
OUT: 0.146
